target: T1, PREP1hd;PBX1HD (;, UniProt P55347;P40424 257-325;227-317, |)
T1 sequence 1: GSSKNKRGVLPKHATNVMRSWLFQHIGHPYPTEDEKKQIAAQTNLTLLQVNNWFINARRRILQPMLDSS
T1 sequence 2: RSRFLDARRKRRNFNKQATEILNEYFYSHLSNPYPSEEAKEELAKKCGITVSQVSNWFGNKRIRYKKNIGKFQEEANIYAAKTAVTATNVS
assay.info: fluorescence polarization; PREP1hd titrated into preformed PBX1HD (0.3 uM):PMH; FP and EMSA: 20 mM Na/K phosphate pH 7.2, 150 mM NaCl, 5% glycerol, 1 mM TCEP, room temperature (FP 9 nM DNA, 30 min; EMSA gel run at 4 C in 0.5x TBE); NMR: 20
experimental.context: protein: recombinant;recombinant; tags: GST cleaved (pGEX-6P);GST cleaved (pGEX-6P); copies: 1;1; label: 5' 6-FAM (FP); unlabeled in EMSA and NMR
property: Kd (µM)
Field format: number, assumed µM, no unit text.

Problem: Please supply the value of reported Kd for the item PMH (dsDNA) DNA 1: AGTGATTGACAGATTC DNA 2: GAATCTGTCAATCACT
Result: 5.1
